- TEST_NAME: yeast display, Sf9 membrane polyspecificity reagent, FACS + sequencing; frameworks hold sequencing errors
EXPERIMENTAL_READOUT: polyreactivity (PSR sort gate)

Solved cases below.
1. QVQLVESGGGLVQAGGSLRLSCAASGRTFAAYAMGWYRQAPGKERELGAAISSSSGNTYYADSVKGRFTISRDNAKNTVYLQMYSLKPEDTAVYYCNAQRRFNANYWYDYWGQGTQVTVAS    high polyreactivity
2. QVQLVESGGGLVQAGGSLRLSCAASGNILYDNAMGSYRQAPGKERELVAAIDWSGGSTYYADSVKGRFTISRDNAKNTVYLQMNSLKPEDTAVYYCAAESYIGKYGSYDYWGLGTQVTVSS    low polyreactivity
3. QVQLVESGGGLVQAGGSLRLSCAASGLTFPQYAMGWYRQAPGKERELVAAISKTGGSTYYADSVKGRFTISRDNAKNTVYLQMNSLKPEDTAVYYCAAVESGDRGQRINYWGQGTQVTVAS    high polyreactivity
4. QVQLVESGGGLVQAGGSLRLSCAASGSIFSDYGMGWYRQAPGKERELVAGISWNGTSTYYADSVKGRFTISRDNAKNTVYLQMNSLKPEDTAVYYCAATFEGGISDLLDLDYWGQGTQVTVSS    low polyreactivity

Exercise: Name the reported polyreactivity (PSR sort gate) value associated with the sequence QVQLVESGGGLVQAGGSLRLSCAASGSIFDENAMGWYRQAPGKERELVAAITSTDSTNYADSVKGRFTISRDNAKNTVYLQMNSLKPEDTAVYYCARDIKHATSYEALYYSDYDYWGQGTQVTVSS
Key: low polyreactivity

Exercise: For the sequence QVQLVESGGGLVQAGGSLRLSCAASGRIILGYAMGWYRQAPGKERELVARITWSGGSTYYADSVKGRFTISRDNAKNTVSLQMNSLKPEDNAVYYCAKRTYYSYPDGYWGQGTQVTVSS , what polyreactivity (PSR sort gate) is on record?
Key: high polyreactivity

Exercise: Look up polyreactivity (PSR sort gate): QVQLVESGGGLVQAGGSLRLSCAASGITFPGYAMGWYRQAPGKEWELVAAISTSGGSTYYADSVKGRFTISRDNAKNTVYLQMNSLKPEATAVYYCNARLVSYSYEEMDYWGQGTQVTVSS
Key: low polyreactivity
